# System: HCI09 (cells of a triple-negative luminal androgen receptor type breast cancer xenograft);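 note: PDX cells carrying CMV promoter-driven luciferase, viability read as total photon flux per second by IVIS imaging following D-luciferin, vehicle control 0.1% DMSO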
# TEST: cell viability (% of vehicle); higher = less cytotoxic
# TEST SETTINGS: 10 µM; 72 h
Field: label. Allowed values: Fulfilled (cell viability < 100) or Not fulfilled (cell viability >= 100).

Field: example entries. Status: answers known.
[in] Problem: For the compound `Cc1cc(Nc2ncc(Cl)c(Nc3ccccc3S(=O)(=O)C(C)C)n2)c(OC(C)C)cc1C1CCNCC1` , is cell viability under 100?
[out] Fulfilled

[in] Problem: For the compound `CCCCCCOC(=O)N=C(N)c1ccc(NCc2nc3cc(C(=O)N(CCC(=O)OCC)c4ccccn4)ccc3n2C)cc1` , is cell viability under 100?
[out] Not fulfilled

[in] Problem: For the compound COC(=O)C1C2CC3c4[nH]c5cc(OC)ccc5c4CCN3CC2CC(OC(=O)c2cc(OC)c(OC)c(OC)c2)C1OC (stereo not given) , is cell viability under 100?
[out] Fulfilled

[in] Problem: For the compound `CCNC1(C(N)=O)CCN(c2ncnc3c2nc(-c2ccccc2Cl)n3-c2ccc(Cl)cc2)CC1.Cl` , is cell viability under 100?
[out] Fulfilled

[in] Problem: For the compound CN(N=O)C(=O)NC1C(O)OC(CO)C(O)C1O (stereo not given) , is cell viability under 100?
[out] Not fulfilled

New cases:
[in] Problem: For the compound `COc1c2ccoc2cc2oc(=O)ccc12` , is cell viability under 100?
[out] Fulfilled

[in] Problem: For the compound `CCOC(=O)C1=C(C)NC(C)=C(C(=O)OCC)C1c1ccccc1C=CC(=O)OC(C)(C)C` , is cell viability under 100?
[out] Fulfilled

[in] Problem: For the compound CC12CCC(=O)C=C1C1CC1C1C2CCC2(C)C1C1CC1C21CCC(=O)O1 (stereo not given) , is cell viability under 100?
[out] Not fulfilled

[in] Problem: For the compound `COc1cc(OC)c(C=CS(=O)(=O)Cc2ccc(OC)c(NCC(=O)[O-])c2)c(OC)c1.[Na+]` , is cell viability under 100?
[out] Not fulfilled

[in] Problem: For the compound COc1ccc2cc1Oc1ccc(cc1)CC1c3c(cc4c(c3Oc3cc5c(cc3OC)CCN(C)C5C2)OCO4)CCN1C (stereo not given) , is cell viability under 100?
[out] Fulfilled

[in] Problem: For the compound CC1(O)CC(c2nc(-c3ccc4ccc(-c5ccccc5)nc4c3)c3c(N)nccn23)C1 (stereo not given) , is cell viability under 100?
[out] Fulfilled

[in] Problem: For the compound CC(=O)[N-]S(=O)(=O)c1ccc(N)cc1.[Na+] [Sulfacetamide Sodium] , is cell viability under 100?
[out] Fulfilled
